Measured values drawn from patent CN113480644A for this set.

target: SARS-CoV-2(2019-nCoV)Spike Protein(S1 Subunit,His Tag) (SARS-CoV-2 (2019-nCoV), UniProt P0DTC2 16-685)
Exercise: state measured pEC50 for each of the binders provided.
Numbers only, as −log10 of the molar value.

Sample answers from the record:
| binder | pEC50 |
| --- | --- |
| PR301556 (antibody, V domains shown) VH: QVQLVQSGAEVKKPGASVKVSCKASGYSFTSYWVNWVRQAPGQGLEWMGMIHPSDSETRLNQKFKDRVTMTVDKSTSTAYMELSSLRSEDTAVYYCARADGYEWYFDVWGRGTLVTVSS VL: DIVLTQSPASLAVSPGQRATITCRASESVDSYGNSFMHWYQQKPGQPPKLLIYRASNLESGIPARFSGSGSRTDFTLTINPVEANDVANYYCQQSNEDPWTFGQGTKVEIK | 10.57 |
| PR301562 (antibody, V domains shown) VH: QVQLVQSGAEVKKPGASVKVSCKTSGYTFTEYTMYWVRQAPGQRLEWMGGINPNNGDTSYNQKFKGRVTITVDKSATTAYMELSSLRSEDTAVYYCARDGYPYYFAMDYWGQGTTVTVSS VL: DIQMTQSPSSLSASVGDRVTITCKASQNVDTNVAWYQQKPGKAPKGLIYSASSRYSGVPSRFSGSGSGTDFTLTISSVQPEDLATYFCQQYNTYPWTFGQGTKVEIK | 10.82 |
| PR301558 (antibody, V domains shown) VH: QVQLVQSGAEVKKPGASVKLSCKASGYSFTSYWVNWVRQAPGQGLEWIGMIHPSDSETRLNQKFKDRVTITVDKSTSTAYMELSSLRSEDTAVYYCARADGYEWYFDVWGRGTLVTVSS VL: DIVLTQSPASLAVSPGQRATITCRASESVDSYGNSFMHWYQQKPGQPPKLLIYRASNLESGIPARFSGSGSRTDFTLTINPVEANDVANYYCQQSNEDPWTFGQGTKVEIK | 10.39 |
| PR301441 (antibody, V domains shown) VH: QVQLVQSGAEVKKPGASVKVSCKASGYSFTSYWVNWVRQAPGQGLEWMGMIHPSDSETRLNQKFKDRVTMTVDKSTSTAYMELSSLRSEDTAVYYCARADGYEWYFDVWGRGTLVTVSS VL: DIVLTQSPASLAVSPGQRATITCRASESVDSYGNSFMHWYQQKPGQPPKLLIYRASNLESGVPARFSGSGSRTDFTLTINPVEANDVANYYCQQSNEDPWTFGQGTKVEIK | 10.81 |
| PR301561 (antibody, V domains shown) VH: QVQLVQSGAEVKKPGASVKVSCKTSGYTFTEYTMYWVRQAPGQRLEWMGGINPNNGDTSYNQKFKGRVTITVDKSATTAYMELSSLRSEDTAVYYCARDGYPYYFAMDYWGQGTTVTVSS VL: DIQMTQSPSSLSASVGDRVTITCKASQNVDTNVAWYQQKPGKAPKGLIYSASHRYSGVPSRFSGSGSGTDFTLTISSVQPEDLATYFCQQYNTYPWTFGQGTKVEIK | 10.66 |

For each listed entry, give its pEC50.
1. PR301566 (antibody, V domains shown) VH: QVQLVQSGAEVKKPGASVKISCKTSGYTFTEYTMYWVRQAPGQRLEWMGGINPNQGDTSYNQKFKGRATLTVDKSATTAYMELSSLRSEDTAVYYCARDGYPYYFAMDYWGQGTTVTVSS VL: DIQMTQSPSSLSASVGDRVTITCKASQNVDTNVAWYQQKPGKAPKGLIYSASHRYSGVPSRFSGSGSGTDFTLTISSVQPEDLATYFCQQYNTYPWTFGQGTKVEIK
2. PR301557 (antibody, V domains shown) VH: QVQLVQSGAEVKKPGASVKLSCKASGYSFTSYWVNWVRQAPGQGLEWIGMIHPSDSETRLNQKFKDRVTITVDKSTSTAYMELSSLRSEDTAVYYCARADGYEWYFDVWGRGTLVTVSS VL: DIVLTQSPASLAVSPGQRATITCRASESVDSYGNSFMHWYQQKPGQPPKLLIYRASNLESGVPARFSGSGSRTDFTLTINPVEANDVANYYCQQSNEDPWTFGQGTKVEIK
3. PR301563 (antibody, V domains shown) VH: QVQLVQSGAEVKKPGASVKISCKTSGYTFTEYTMYWVRQAPGQRLEWMGGINPNNGDTSYNQKFKGRATLTVDKSATTAYMELSSLRSEDTAVYYCARDGYPYYFAMDYWGQGTTVTVSS VL: DIQMTQSPSSLSASVGDRVTITCKASQNVDTNVAWYQQKPGKAPKGLIYSASHRYSGVPSRFSGSGSGTDFTLTISSLQPEDLATYFCQQYNTYPWTFGQGTKVEIK
4. PR301442 (antibody, V domains shown) VH: QVQLVQSGAEVKKPGASVKLSCKASGYSFTSYWVNWVRQAPGQGLEWIGMIHPSDSETRLNQKFKDRVTITVDKSTSTAYMELSSLRSEDTAVYYCARADGYEWYFDVWGRGTLVTVSS VL: DIVLTQSPASLAVSPGQRATITCRASESVDSYGNSFMHWYQQKPGQPPKLLIYRASNLESGIPARFSGSGSGTDFTLTINPVEANDVANYYCQQSNEDPWTFGQGTKVEIK
5. PR301447 (antibody, V domains shown) VH: QVQLVQSGAEVKKPGASVKISCKTSGYTFTEYTMYWVRQAPGQRLEWMGGINPNQGDTSYNQKFKGRATLTVDKSATTAYMELSSLRSEDTAVYYCAREGYPYYFAMDYWGQGTTVTVSS VL: DIQMTQSPSSLSASVGDRVTITCKASQNVDTNVAWYQQKPGKAPKGLIYSASSRYSGVPSRFSGSGSGTDFTLTISSVQPEDLATYFCQQYNTYPWTFGQGTKVEIK

A.
1. 10.83
2. 10.36
3. 10.66
4. 10.53
5. 8.65
